Test Method Notes: basal 3T3-L1 adipocyte mitochondrial potential changes, profiling panel, cell-based, JC-1 fluorescence, 3T3-L1 adipocytes, 24 h, 100 nL compound (AID 1168); also: test concentration not given here
Experimental Conditions: JC-1 mitochondrial fluorescence, higher = more signal, called active from +8 up or from −8 down
Consider the following compounds and their measured z-score readings.
Number only, please.

# Compound, z-score
data = [
    ("O=C(O)[C@H]1C[C@H]2C(=O)N3CCC[C@H]3C(=O)N2[C@H]1c1cccc(OCCO)c1", -0.652),
    ("COC(=O)[C@@]1(Cc2ccc(OC)cc2)[C@H]2c3cc(C(=O)N(C)C)n(Cc4nc5ccccc5[nH]4)c3C[C@H]2CN1C(=O)c1ccccc1", -1.24),
    ("C=CC[C@@H](OC(=O)Nc1ccc(OC)cc1)c1ccc(OCCO)cc1", -0.451),
]

Prompt: Reported z-score for CN1C2C=C(CCCO)C(C3C(=O)N(C(N)=O)C(=O)C32)C1c1cccs1 (centres undefined) : what is it?
Completion: -1

Prompt: Same for C=C(C(=O)CC[C@H](OC(=O)c1cccnc1)c1ccc(CO)o1)C(C)C
Completion: -1.78

Prompt: Same for CC(C)C(=C=CC[C@@H](O)c1ccccc1OCCO)C[C@@H](O)COCc1ccccc1
Completion: 0.791

Prompt: Same for C[C@H]1ON(c2ccc(C(=O)OC(C)(C)C)cc2)[C@@H](c2ccc(O)cc2)[C@@H]1C(=O)N1C(=O)OC[C@@H]1c1ccccc1
Completion: -0.575

Prompt: Same for Cc1ccc(C(C)CC(O)C2C=CC3C(=O)N(c4ccccc4)C(=O)C3N2Nc2ccc(C(C)C)cc2)o1 (centres undefined)
Completion: -1.44

---

Test Method Notes: small-molecule microarray binders of probe aNog, primary screen, biochemical, biotinylated probe, 635/667 nm fluorescence (AID 1115);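 also: probe is biotinylated aNog protein used at 0.15 µg/mL for 1 h at 4 C; z-score combines 667 nm fluorescence of each spot with its signal to noise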
Experimental Conditions: higher = more signal
Consider the following molecules and their measured composite z-score readings.
Number only, please.

Prompt: Reported composite z-score for COC(=O)[C@@]1(Cc2ccccc2)[C@H]2c3cc(C(=O)N4CCCC4)n(C[C@H](O)CO)c3C[C@H]2CN1C(=O)c1ccccc1 : what is it?
Completion: -0.107

Prompt: Same for C=CCN1C(=O)[C@@]2(O[C@@H](CCO)[C@H]([Si](C)(C)c3ccc(OC)cc3)[C@H]2C)c2cc(N3C(=O)c4ccccc4Oc4ccccc43)ccc21
Completion: 0.0061

Prompt: Same for CC=CC(O)C1C=CC2C(=O)N(c3ccccc3)C(=O)C2N1Nc1ccccc1 (stereo not drawn)
Completion: 1.16

---

Tested on: wheat germ agglutinin (Triticum aestivum), Alexa647-labelled
Test Method Notes: wheat germ agglutinin binders on compound microarrays, profiling panel, artefact control for SMM control-protein annotation, biochemical, small-molecule microarray, 635/667 nm fluorescence (AID 1140);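 also: score merges 667 nm feature emission with signal to noise over triplicate slides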
Experimental Conditions: WGA-A647 binding, 635 nm fluorescence, higher = more signal
Returns true if the recorded composite z-score is greater than or equal to 0.6, and false otherwise.

Consider the following illustrative entries.
# Compound, Category Label
data = [
    ("CCOC(=O)C[C@H]1[C@H](OC(=O)c2ccc(C(=O)c3ccccc3)cc2)[C@@H](NC(=O)c2ccc3ccccc3c2)c2cc(OCCCO)ccc2N1C(=O)c1ccccc1", "true"),
    ("CC(C)c1ccc(NN2C(C(O)c3ccco3)C=CC3C(=O)N(c4ccccc4)C(=O)C32)cc1 (stereo not drawn)", "true"),
    ("Cc1ccc(S[C@]2(C(=O)NC3CC3)CC(=O)N(Cc3ccccc3Cl)[C@@H]2c2ccc(CO)cc2I)cc1", "false"),
    ("[N-]=[N+]=Nc1ccccc1[C@@H]1OC(c2ccc(OCCCO)cc2)=N[C@]1(CCS(=O)(=O)c1ccccc1)C(=O)NCCN1CCOCC1", "true"),
    ("CCOC(=O)C[C@H]1[C@H](OC(=O)c2ccccc2-c2ccccc2)[C@@H](NC(=O)c2ccc3ccccc3n2)c2cc(OCCCO)ccc2N1C(=O)c1ccc2ccccc2n1", "false"),
    ("CCOC(=O)C1=C[C@@H](c2ccccc2)N(S(=O)(=O)c2ccc(C)cc2)[C@H]1c1cccc(Cl)c1", "true"),
    ("O=C1NCC(=O)N2[C@@H]1C[C@@H](C(=O)O)[C@H]2c1ccc(O)cc1", "false"),
    ("Cc1c(NC(=O)/C(C#N)=C/C=C/c2ccc(N(C)C)cc2)c(=O)n(-c2ccccc2)n1C", "true"),
]

Prompt: Given the entry CC(C)(C)OC(=O)CC[C@@]1(C(=O)O)N=C(c2ccc(OCCCO)cc2)O[C@@H]1c1ccccc1CN=[N+]=[N-] , answer whether its composite z-score meets or surpasses 0.6.
Completion: true

Prompt: Same for O=C1NC(=O)C2C1C=CC(C(O)c1ccc3c(c1)OCO3)N2Nc1ccccn1 (stereo not drawn)
Completion: true

Prompt: Same for C=C(COC)/C(=C/C[C@@H](OC(=O)c1ccncc1)c1ccc(CO)o1)c1cnc2ccccc2c1
Completion: true

Prompt: Same for O=C1OCCC=C[C@H]2OC34C=CCN(c5ccc(Cl)cc5)C(=O)[C@H]3N(CCCCCO)C(=O)[C@@H]4C12 (stereo partly drawn)
Completion: false

Prompt: Same for CCCCN1CC=CC23O[C@@H]4C=CCOC(=O)[C@@H]4[C@H]2C(=O)N(CCCO)[C@@H]3C1=O (stereo partly drawn)
Completion: false

src = PubChem BioAssay
